conditions: human gut metagenome, 24 h, 2 µM; note: call rule not given here
property: Bacterial Biotransformation

Solved cases (5 shown):
- compound: "CCC(COC(=O)c1cc(OC)c(OC)c(OC)c1)(c1ccccc1)N(C)C.O=C(O)/C=C\\C(=O)O (configuration not stated)"
  Bacterial Biotransformation: "Compound metabolized"
- compound: "CNC(=C[N+](=O)[O-])NCCSCc1csc(CN(C)C)n1 [NIZATIDINE]"
  Bacterial Biotransformation: "Compound NOT metabolized"
- compound: "O=c1[nH]c2ccccc2n1CCCN1CCC(n2c(=O)[nH]c3cc(Cl)ccc32)CC1 [DOMPERIDONE]"
  Bacterial Biotransformation: "Compound NOT metabolized"
- compound: "CC[C@@H](CO)NC(=O)[C@@H]1C=C2c3cccc4c3c(cn4C)C[C@H]2N(C)C1.O=C(O)/C=C\\C(=O)O [METHYSERGIDE MALEATE]"
  Bacterial Biotransformation: "Compound NOT metabolized"
- compound: "CC(C)(Oc1ccc(CCNC(=O)c2ccc(Cl)cc2)cc1)C(=O)O [BEZAFIBRATE]"
  Bacterial Biotransformation: "Compound metabolized"

Please state Bacterial Biotransformation for every compound in the list that follows.
1. CC(CN(C)C)CN1c2ccccc2CCc2ccccc21.O=C(O)/C=C\C(=O)O (configuration not stated) [TRIMIPRAMINE MALEATE]
2. CCCCC(=O)N(Cc1ccc(-c2ccccc2-c2nnn[nH]2)cc1)[C@H](C(=O)O)C(C)C

Output:
1. Compound metabolized
2. Compound metabolized

Please state Bacterial Biotransformation for every compound in the list that follows.
1. CN(C)CC(c1ccc(O)cc1)C1(O)CCCCC1.O=C(O)CCC(=O)O (configuration not stated) [DESVENLAFAXINE SUCCINATE]
2. CN1C(C(=O)Nc2ccccn2)=C(O)c2sccc2S1(=O)=O [TENOXICAM]
3. CCOC(=O)[C@H](CCc1ccccc1)N[C@H]1CCc2ccccc2N(CC(=O)O)C1=O [BENAZEPRIL]
4. Cc1nc2n(c(=O)c1CCN1CCC(c3noc4cc(F)ccc34)CC1)CCCC2O (configuration not stated) [PALIPERIDONE]
5. O=C(O)COCCN1CCN(C(c2ccccc2)c2ccc(Cl)cc2)CC1 (configuration not stated) [CETIRIZINE]
6. C[C@@H]1CC[C@H]2[C@@H](C)C(=O)O[C@@H]3O[C@@]4(C)CC[C@@H]1[C@]32OO4 [ARTEMISININ]

Output:
1: Compound NOT metabolized; 2: Compound NOT metabolized; 3: Compound metabolized; 4: Compound metabolized; 5: Compound metabolized; 6: Compound metabolized

Please state Bacterial Biotransformation for every compound in the list that follows.
1. NS(=O)(=O)c1cc2c(cc1Cl)N=C(CSCc1ccccc1)NS2(=O)=O [BENZTHIAZIDE]
2. OC(CCN1CCCCC1)(c1ccccc1)C1CCCCC1 (configuration not stated) [TRIHEXYPHENIDYL]
3. CN1CCc2c(c3ccccc3n2Cc2ccccc2)C1.CN1CCc2c(c3ccccc3n2Cc2ccccc2)C1.O=S(=O)(O)c1cccc2c(S(=O)(=O)O)cccc12
4. CN1CCC(=C2c3ccccc3CCc3cccnc32)CC1.O=C(O)/C=C\C(=O)O.O=C(O)/C=C\C(=O)O [AZATADINE MALEATE]
5. CN1C(=O)CC(C)(c2ccccc2)C1=O (configuration not stated) [METHSUXIMIDE]
6. CCCc1nn(C)c2c(=O)[nH]c(-c3cc(S(=O)(=O)N4CCN(C)CC4)ccc3OCC)nc12.O=C(O)CC(O)(CC(=O)O)C(=O)O [SILDENAFIL CITRATE]

Output:
1: Compound NOT metabolized; 2: Compound NOT metabolized; 3: Compound NOT metabolized; 4: Compound NOT metabolized; 5: Compound NOT metabolized; 6: Compound metabolized

Please state Bacterial Biotransformation for every compound in the list that follows.
1. CN(C)CCc1c[nH]c2ccc(Cn3cncn3)cc12.O=C(O)c1ccccc1 [RIZATRIPTAN BENZOATE]
2. CCN(CC)CCNC(C(=O)OCCC(C)C)c1ccccc1.Cl.Cl (configuration not stated)

Output:
1: Compound NOT metabolized; 2: Compound metabolized

Please state Bacterial Biotransformation for every compound in the list that follows.
1. CC(C)(C)NC[C@H](O)COc1ccccc1C1CCCC1.CC(C)(C)NC[C@H](O)COc1ccccc1C1CCCC1.O=S(=O)(O)O [PENBUTOLOL SULFATE]
2. CC(C)(C(=O)O)c1ccc(C(O)CCCN2CCC(C(O)(c3ccccc3)c3ccccc3)CC2)cc1 (configuration not stated) [FEXOFENADINE]
3. COc1cc2nc(N3CCN(C(=O)c4ccco4)CC3)nc(N)c2cc1OC [PRAZOSIN]
4. CCOC(=O)[C@H](CCc1ccccc1)N[C@@H](C)C(=O)N1[C@H](C(=O)O)C[C@@H]2CCC[C@@H]21

Output:
Compound metabolized
Compound NOT metabolized
Compound metabolized
Compound metabolized

Please state Bacterial Biotransformation for every compound in the list that follows.
1. COC1=CC(=O)C[C@@H](C)[C@]12Oc1c(Cl)c(OC)cc(OC)c1C2=O [GRISEOFULVIN]
2. Cc1nc(-c2ccc(OCC(C)C)c(C#N)c2)sc1C(=O)O [FEBUXOSTAT]
3. CC(=O)OCC(=O)[C@@]1(O)[C@@H](C)C[C@H]2[C@@H]3CCC4=CC(=O)C=C[C@]4(C)[C@@]3(F)[C@@H](O)C[C@@]21C [BETAMETHASONE ACETATE]
4. O=c1[nH]c2ccccc2n1C1CCN(CCCC(c2ccc(F)cc2)c2ccc(F)cc2)CC1 [PIMOZIDE]
5. CCC(=O)NCC[C@@H]1CCc2ccc3c(c21)CCO3 [RAMELTEON]
6. O=C1[C@H](CC[C@H](O)c2ccc(F)cc2)[C@@H](c2ccc(O)cc2)N1c1ccc(F)cc1 [EZETIMIBE]

Output:
1. Compound metabolized
2. Compound metabolized
3. Compound metabolized
4. Compound metabolized
5. Compound metabolized
6. Compound NOT metabolized

Form field Bacterial Biotransformation, entry CN1CC(=O)N2[C@H](c3ccc4c(c3)OCO4)c3[nH]c4ccccc4c3C[C@@H]2C1=O : Compound metabolized
